- Tested on: Human ovarian cancer cell line SKOV3
- experiment_description: Inherent cytotoxicity (dark toxicity) in SKOV3 cells (AlamarBlue viability)
- Assay type: cell-based
- settings: human, 24 h
Structures can show the parent of a compound that is named as a salt.
observation_type: Dark toxicity μM (IC10) (µM)
API: value field is a number in µM; no unit string.

compound | Dark toxicity μM (IC10), µM
CCC1=C(C)c2cc3[nH]c(cc4nc(c(C)c5cc(C)c(cc1n2)[nH]5)[C@@H](CCC(=O)N(C)CCCOCCC[P+](c1ccccc1)(c1ccccc1)c1ccccc1)[C@@H]4C)c(C)c3CC [Compound 11] | 4.347

Ask: Give Dark toxicity μM (IC10) for CCC1=C(C)c2cc3[nH]c(cc4nc(c(C)c5cc(C)c(cc1n2)[nH]5)[C@@H](CCC(=O)N[C@@H](CCCCN)C(=O)N(C)C)[C@@H]4C)c(C)c3CC [Compound 31, Hydrochloride]
Result: 8.850

Ask: Give Dark toxicity μM (IC10) for CCC1=C(C)c2cc3[nH]c(cc4nc(c(C)c5cc(C)c(cc1n2)[nH]5)[C@@H](CCC(=O)N(C)CCOCCOCC[n+]1ccccc1)[C@@H]4C)c(C)c3CC [Compound 13]
Result: 1.260

Ask: Give Dark toxicity μM (IC10) for CCC1=C(C)c2cc3[nH]c(cc4nc(c(C)c5cc(C)c(cc1n2)[nH]5)[C@@H](CCCO)[C@@H]4C)c(C)c3CC [Compound 20, Reduced Phyllochlorin 3-hydroxypropyl]
Result: 5.825
